Target: T1, cynomolgus CX3CR1 (cynomolgus monkey (Macaca fascicularis), UniProt P49238 1-355 (human entry))
T1 construct: Overexpressed on CHO K1 cells; also called cyno CX3CR1; cyCX3CR1
T1 chain: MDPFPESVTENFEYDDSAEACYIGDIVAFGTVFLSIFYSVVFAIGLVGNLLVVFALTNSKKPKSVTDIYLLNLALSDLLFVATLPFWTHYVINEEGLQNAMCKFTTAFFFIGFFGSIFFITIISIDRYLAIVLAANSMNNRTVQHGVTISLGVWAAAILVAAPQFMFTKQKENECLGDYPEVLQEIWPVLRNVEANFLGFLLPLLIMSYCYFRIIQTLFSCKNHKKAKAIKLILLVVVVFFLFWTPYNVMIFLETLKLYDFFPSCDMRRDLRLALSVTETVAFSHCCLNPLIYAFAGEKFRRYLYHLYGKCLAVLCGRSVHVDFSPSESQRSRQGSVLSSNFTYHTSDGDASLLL
Experiment: flow cytometry on CHO K1 cyCX3CR1 cells, 30 uM HSA
Experimental Readout: EC50 (pM)
Give the quantity in pM, number only.

State its EC50 for this binder: A041600025 (VHH, Trivalent ISVD construct (two anti-CX3CR1 ISVDs, one anti-albumin ISVD), C-terminal alanine included in the entry; also called 54A12_SO (E1D)-9GS-ALB23002-9GS-54A12_SO-A) DVQLVESGGGSVQPGGSLRLSCAASGSIFSSTAMAWYRQAPGKQRDLVAVISTVGITKYADSVKGRFTISRDNAKNTVYLQMNSLRPEDTALYYCTSDARRGWDTRYWGQGTLVTVSSGGGGSGGGSEVQLVESGGGVVQPGGSLRLSCAASGFTFRSFGMSWVRQAPGKGPEWVSSISGSGSDTLYADSVKGRFTISRDNSKNTLYLQMNSLRPEDTALYYCTIGGSLSRSSQGTLVTVSSGGGGSGGGSEVQLVESGGGSVQPGGSLRLSCAASGSIFSSTAMAWYRQAPGKQRDLVAVISTVGITKYADSVKGRFTISRDNAKNTVYLQMNSLRPEDTALYYCTSDARRGWDTRYWGQGTLVTVSSA
360

State its EC50 for this binder: A041600010 (VHH, Trivalent ISVD construct (two anti-CX3CR1 ISVDs, one anti-albumin ISVD); also called 66B02_SO (E1D)-9GS-ALB23002-9GS-66B02_SO-A) DVQLVESGGGSVQPGGSLRLSCAASGSIFSSTAMAWYRQAPGKRRDLVAAINTVGVTKYADSVKGRFTISRDNAKNTVYLQMNSLRPEDTALYYCTSDPRRGWDTRYWGQGTLVTVSSGGGGSGGGSEVQLVESGGGVVQPGGSLRLSCAASGFTFRSFGMSWVRQAPGKGPEWVSSISGSGSDTLYADSVKGRFTISRDNSKNTLYLQMNSLRPEDTALYYCTIGGSLSRSSQGTLVTVSSGGGGSGGGSEVQLVESGGGSVQPGGSLRLSCAASGSIFSSTAMAWYRQAPGKRRDLVAAINTVGVTKYADSVKGRFTISRDNAKNTVYLQMNSLRPEDTALYYCTSDPRRGWDTRYWGQGTLVTVSSA
460
